# procedure-text: log P by HPLC on reversed-phase columns (C 18), method [a], acidic range pH 2.3
# Assay type: physicochemical
# experimental-setup: pH 2.3
Reported log p is given for each of the following compounds.

Use these answered entries as a reference point.
compound	log p
CC1(C)CC(=O)N(c2cccc(Nc3ncc(C(F)(F)F)c(NC4CC4)n3)c2)C1=O	2.63[a]
CC1CC(=O)N(c2cccc(Nc3ncc(Cl)c(NC4CC4(C)C)n3)c2)C1=O (centres unmarked)	2.13[a];
CCC(C)Nc1nc(Nc2ccc(N3CCCC3=O)cc2)ncc1Cl (centres unmarked)	1.65[a]
CC(C)[C@H]1COC(=O)N1c1cccc(Nc2ncc(Cl)c(N(C)C3CC3)n2)c1	3.09[a]

Kindly consider the entry below.
Q: Look up and report measured log p for this entry: CC1CCN(Cc2cccc(Nc3ncc(Cl)c(NC4CC4)n3)c2)C1=O (centres unmarked)
Result: 1.7[a];

---

# procedure-text: log P by LC-MS, method [b], acid range pH 2.7
# Format: physicochemical
# experimental-setup: pH 2.7
reported-endpoint: log p

Completed entries (count: 8):
molecule	result
O=C1CCCN1c1cccc(Nc2ncc(C(F)(F)F)c(NCC(F)(F)F)n2)c1	2.6[b]
CC1CC(Nc2nc(Nc3cccc(N4C(=O)CCC4C)c3)ncc2Cl)C1 (stereo not drawn)	2.15[b]
CC1CC(C)N(c2cccc(Nc3ncc(C(F)(F)F)c(NC4CCC4)n3)c2)C1=O (stereo not drawn)	3.27[b]
CC1CN(c2cccc(Nc3ncc(Cl)c(NC4CCC4)n3)c2)C(=O)O1 (stereo not drawn)	1.91[b]
O=C1CCCN1c1cccc(Nc2ncc(Cl)c(N3CCSCC3)n2)c1	2.63[b]
CN1CCN(c2cccc(Nc3ncc(I)c(NC4CC4)n3)c2)C1=O	1.57[b]
CC1CC(Nc2nc(Nc3cccc(N4CCN(C)C4=O)c3)ncc2Br)C1 (stereo not drawn)	2[b]
COC(=O)N(c1cccc(N2CCCC2=O)c1)c1ncc(C(F)(F)F)c(NC2CC2)n1	2.25[b]

Field: next molecule
Q: Specify log p for CC1CC(=O)N(c2cccc(Nc3ncc(Br)c(NCC(F)F)n3)c2)C1=O (stereo not drawn) and stop.
Result: 1.78[b]

---

# System: Fusarium proliferatum
# procedure-text: Production of Fumonisin FB1 by Fusarium proliferatum (microtitre plates; FB1 by HPLC-MS/MS, growth by OD620)
# Assay type: cell-based
# experimental-setup: FB1 concentration in liquid medium after 6 days at 20° C., HPLC-MS/MS
pI50 Fum of 6 or higher: 1.0. Under 6: 0.0.

Past entries and their recorded results:
compound	category
CC(C)Nc1nc(Nc2cccc(N3CCOC3=O)c2)ncc1Cl	0.0
CC(C)Nc1nc(Nc2cccc(N3C(=O)OCC3C)c2)ncc1Cl (stereo not shown)	0.0
CC1CC(C)N(c2cccc(Nc3ncc(Br)c(NC4CC4)n3)c2)C1=O (stereo not shown)	1.0
CC1CCN(c2cccc(Nc3ncc(Br)c(NC4CCC4)n3)c2)C1=O (stereo not shown)	1.0
CC1(C)CC(=O)N(c2cccc(Nc3ncc(Cl)c(NC4CC4)n3)c2)C1=O	1.0

Q: API: above_or_equal(metric=pI50 Fum, cutoff=6) for item `FC(F)(F)c1cnc(Nc2cccc(N3CCCC3=S)c2)nc1NC1CC1`
Result: 0.0

Q: Is it the case that `CC1(C)CC(=O)N(c2cccc(Nc3ncc(Br)c(NC4CC4)n3)c2)C1=O` has pI50 Fum reaching or exceeding 6?
Result: 1.0

Q: Check the entry `CC1(C)CC(=O)N(c2cccc(Nc3ncc(Br)c(NC4CCC4)n3)c2)C1=O` : does pI50 Fum equal or exceed 6?
Result: 1.0

Q: Say whether COC(=O)C1CC(=O)N(c2cccc(Nc3ncc(Cl)c(NC4CC4)n3)c2)C1 (stereo not shown) shows pI50 Fum of 6 or more.
Result: 0.0

Q: Form field: pI50 Fum at least 6? Entry: CC1CC(C)N(c2cccc(Nc3ncc(Cl)c(N(C)C4CC4)n3)c2)C1=O (stereo not shown)
Result: 0.0

Measured values drawn from patent US20110245242A1 for this set.
